- System: thiol peptide
- test: Cys-DPRA (Direct Peptide Reactivity Assay), literature data
- cond: true positive
Exercise: for every item that follows, state its recorded Cys-DPRA binary classification: TP.
Answer using only a numeral; do not append any unit.

Look up Cys-DPRA binary classification: TP of CC1=C(C=O)C(C)(C)CC=C1 [Safranal] and report it.
1

Look up Cys-DPRA binary classification: TP of C=C(C)C1CC=C(C=O)CC1 (stereo not shown) [Perillaldehyde] and report it.
1

Look up Cys-DPRA binary classification: TP of O=C(O)c1ccccc1O [Salicylic acid] and report it.
0

Look up Cys-DPRA binary classification: TP of CC(O)C(=O)O (stereo not shown) [Lactic acid] and report it.
0

Look up Cys-DPRA binary classification: TP of CCC/C=C/C=O [trans-2-Hexenal] and report it.
1

Look up Cys-DPRA binary classification: TP of CC(C)=CCCC(C)=CC=O [Citral] and report it.
1

Look up Cys-DPRA binary classification: TP of C=CC(=O)OCC [Ethyl acrylate] and report it.
1

====

Exercise: for every item that follows, state its recorded Cys-DPRA binary classification: TN.
- Tested on: thiol peptide
- test: Cys-DPRA (Direct Peptide Reactivity Assay), literature data
- cond: true negative
Where a name gives a salt, the structure may show the parent alone.
Answer using only a numeral; do not append any unit.

Look up Cys-DPRA binary classification: TN of CCC/C=C/C=O [trans-2-Hexenal] and report it.
0

Look up Cys-DPRA binary classification: TN of O=c1ccc2ccccc2o1 and report it.
1

Look up Cys-DPRA binary classification: TN of CC(=O)C(=O)CC(C)C and report it.
0

Look up Cys-DPRA binary classification: TN of O=C(O)c1ccccc1O and report it.
1

Look up Cys-DPRA binary classification: TN of C=C(C)C1CC=C(C=O)CC1 (stereo not shown) and report it.
0

Look up Cys-DPRA binary classification: TN of CC(C)=CCCC(C)=CC=O and report it.
0

Look up Cys-DPRA binary classification: TN of O=Cc1ccccc1 and report it.
0

Look up Cys-DPRA binary classification: TN of Cn1sccc1=O and report it.
0

Look up Cys-DPRA binary classification: TN of CC/C=C\CCCCC=O [cis-6-Nonenal] and report it.
0

Look up Cys-DPRA binary classification: TN of O=C1C=CC(=O)C=C1 and report it.
0

Look up Cys-DPRA binary classification: TN of O=c1c(-c2ccccc2)c1-c1ccccc1 and report it.
0

Look up Cys-DPRA binary classification: TN of O=C(O)C(=O)O and report it.
1

Look up Cys-DPRA binary classification: TN of CCOC(=O)/C=C\C(=O)OCC [Diethyl maleate] and report it.
0

Look up Cys-DPRA binary classification: TN of CC=CC(=O)CC and report it.
0

Look up Cys-DPRA binary classification: TN of O=[N+]([O-])c1ccc(Cl)c([N+](=O)[O-])c1 and report it.
0

Look up Cys-DPRA binary classification: TN of O=C(O)C(O)C(O)C(=O)O (stereo not shown) and report it.
1

Look up Cys-DPRA binary classification: TN of O=C1CCO1 and report it.
0

Look up Cys-DPRA binary classification: TN of C=CC(=O)OCC [Ethyl acrylate] and report it.
0

Look up Cys-DPRA binary classification: TN of CC1=C(C=O)C(C)(C)CC=C1 and report it.
0

Look up Cys-DPRA binary classification: TN of CCCCBr and report it.
0

Look up Cys-DPRA binary classification: TN of CC(C=O)Cc1ccc(C(C)(C)C)cc1 (stereo not shown) and report it.
0

Look up Cys-DPRA binary classification: TN of CCC=CC=CC=O and report it.
0

Look up Cys-DPRA binary classification: TN of Clc1ccccc1 and report it.
1

Look up Cys-DPRA binary classification: TN of COc1cc(C=O)ccc1O and report it.
1

Look up Cys-DPRA binary classification: TN of CC(C)=CCCC(C)=CCCC(C)=CC=O and report it.
0

Look up Cys-DPRA binary classification: TN of C=C(C)[C@@H]1CC=C(C)C(=O)C1 and report it.
0

Look up Cys-DPRA binary classification: TN of O=C(OCc1ccccc1)c1ccccc1 [Benzyl benzoate] and report it.
1

Look up Cys-DPRA binary classification: TN of CC(O)C(=O)O (stereo not shown) and report it.
1
